- MEASUREMENT_TARGET: Myelin-associated glycoprotein (Homo sapiens, UniProt P20916)
- Sequence (P20916 whole entry): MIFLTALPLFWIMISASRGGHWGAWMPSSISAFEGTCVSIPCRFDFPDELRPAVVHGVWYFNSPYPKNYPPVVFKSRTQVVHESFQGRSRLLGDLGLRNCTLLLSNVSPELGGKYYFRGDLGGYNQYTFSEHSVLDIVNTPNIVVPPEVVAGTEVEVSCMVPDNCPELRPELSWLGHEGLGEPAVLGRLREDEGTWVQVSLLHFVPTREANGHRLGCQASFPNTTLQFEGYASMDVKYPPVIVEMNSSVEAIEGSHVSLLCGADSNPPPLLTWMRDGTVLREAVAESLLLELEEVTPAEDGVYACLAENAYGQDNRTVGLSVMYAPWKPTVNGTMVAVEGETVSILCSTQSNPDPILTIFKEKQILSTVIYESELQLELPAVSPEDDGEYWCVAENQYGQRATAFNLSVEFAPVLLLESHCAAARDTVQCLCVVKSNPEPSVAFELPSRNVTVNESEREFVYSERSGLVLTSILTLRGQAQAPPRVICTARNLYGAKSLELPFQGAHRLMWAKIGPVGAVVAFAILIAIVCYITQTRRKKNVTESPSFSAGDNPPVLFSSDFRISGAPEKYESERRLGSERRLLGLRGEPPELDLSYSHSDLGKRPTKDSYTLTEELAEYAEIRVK
- ASSAY_REMARKS: Binding affinity to wild type MAG at 400 uM by Isothermal titration calorimetry
Parameter: Kd. Scope: all listed entries.
Just the number in µM, nothing appended.

COC(=O)[C@@H](NC(C)=O)[C@@H](C)O[C@H]1O[C@H](CO[C@]2(C(=O)O)C[C@H](O)[C@@H](NC(C)=O)[C@H]([C@H](O)[C@H](O)CNC(=O)c3ccc(F)cc3)O2)[C@H](O)[C@H](O[C@@H]2O[C@H](CO)[C@H](O)[C@H](O[C@]3(C(=O)O)C[C@H](O)[C@@H](NC(C)=O)[C@H]([C@H](O)[C@H](O)CO)O3)[C@H]2O)[C@H]1NC(C)=O: 0.015

For this compound ( COC(=O)[C@@H](NC(C)=O)[C@@H](C)O[C@H]1O[C@H](CO[C@]2(C(=O)O)C[C@H](O)[C@@H](NC(C)=O)[C@H]([C@H](O)[C@H](O)CO)O2)[C@H](O)[C@H](O[C@@H]2O[C@H](CO)[C@H](O)[C@H](O[C@]3(C(=O)O)C[C@H](O)[C@@H](NC(C)=O)[C@H]([C@H](O)[C@H](O)CNC(=O)c4ccc(F)cc4)O3)[C@H]2O)[C@H]1NC(C)=O ), measured Kd is 0.48

The measured Kd associated with COC(=O)[C@@H](NC(C)=O)[C@@H](C)O[C@H]1O[C@H](CO)[C@H](O)[C@H](O[C@@H]2O[C@H](CO)[C@H](O)[C@H](O[C@]3(C(=O)O)C[C@H](O)[C@@H](NC(C)=O)[C@H]([C@H](O)[C@H](O)CNC(=O)c4ccc(F)cc4)O3)[C@H]2O)[C@H]1NC(C)=O reads 0.13
